Test: Bioavailability in rat
Assay type: ADME, organism-based
Conditions: in vivo
Items are presented alongside their recorded bioavailability.
MEASUREMENT_TYPE: bioavailability (%)

| MOL | MEASUREMENT_TYPE | OBSERVED_MEASUREMENT |
| --- | --- | --- |
| O=c1[nH]nc(CN2CCC[C@H](OCc3cc(C(F)(F)F)cc(C(F)(F)F)c3)[C@@H]2c2ccccc2)[nH]1 | bioavailability | 46 |
| FC(F)(F)c1cc(CO[C@H]2CCCN(Cc3nnc[nH]3)[C@H]2c2ccccc2)cc(C(F)(F)F)c1 | bioavailability | 18 |

###

Assay: Plasma volume of distribution of the 3 mg/kg in rat
Format: ADME, organism-based
Parameters: dose 3 mg/kg

| MOL | Vd, L/kg |
| --- | --- |
| FC(F)(F)c1cc(CO[C@H]2CCCN(Cc3nnc[nH]3)[C@H]2c2ccccc2)cc(C(F)(F)F)c1 | 2.6 |

###

System: Rattus norvegicus
Assay: Plasma concentration after 3 mg/kg peroral dosing in rat at 5.0 hr in rats
Type: ADME, organism-based
Set-up: dose 3 mg/kg, route oral
Settings: in vivo, po

| MOL | TARGET_OF_ASSAY | UNIT_ABBREVIATION | Concentration |
| --- | --- | --- | --- |
| O=c1[nH]nc(CN2CCC[C@H](OCc3cc(C(F)(F)F)cc(C(F)(F)F)c3)[C@@H]2c2ccccc2)[nH]1 | Rattus norvegicus | ng/mL | 25 |

###

System: Rattus norvegicus
Assay: Plasma concentration of 3 mg/kg iv after 4 hr in rats
Format: ADME, organism-based
Design: dose 3 mg/kg, route intravenous
Settings: in vivo
MEASUREMENT_TYPE: Concentration (ng/mL)

| MOL | UNIT_ABBREVIATION | OBSERVED_MEASUREMENT |
| --- | --- | --- |
| FC(F)(F)c1cc(CO[C@H]2CCCN(Cc3nnc[nH]3)[C@H]2c2ccccc2)cc(C(F)(F)F)c1 | ng/mL | 13.2 |
| O=c1[nH]nc(CN2CCC[C@H](OCc3cc(C(F)(F)F)cc(C(F)(F)F)c3)[C@@H]2c2ccccc2)[nH]1 | ng/mL | 30 |

###

Species on record: Oryctolagus cuniculus
Test: Displacement of [3H]diltiazem from rabbit skeletal muscle calcium channel
Type: tissue-based
Settings: Muscle tissue
MEASUREMENT_TYPE: Binding affinity

| COMPOUND | OBSERVED_MEASUREMENT |
| --- | --- |
| COc1ccccc1CN[C@H]1CCCN[C@H]1c1ccccc1 [CP-99994] | 4 µM |
| FC(F)(F)c1cc(CO[C@H]2CCCN(Cc3nnco3)[C@H]2c2ccccc2)cc(C(F)(F)F)c1 | 10 µM |
| FC(F)(F)c1cc(CO[C@H]2CCCN(Cc3ncc[nH]3)[C@H]2c2ccccc2)cc(C(F)(F)F)c1 | 2.06 µM |
| O=c1[nH]nc(CN2CCC[C@H](OCc3cc(C(F)(F)F)cc(C(F)(F)F)c3)[C@@H]2c2ccccc2)[nH]1 | 12.6 µM |
| FC(F)(F)c1cc(CO[C@H]2CCCN(Cc3c[nH]cn3)[C@H]2c2ccccc2)cc(C(F)(F)F)c1 | 2.3 µM |
| FC(F)(F)c1cc(CO[C@H]2CCCN(Cc3nc[nH]n3)[C@H]2c2ccccc2)cc(C(F)(F)F)c1 | > 100 µM |
| FC(F)(F)c1cc(CO[C@H]2CCCN(Cc3cocn3)[C@H]2c2ccccc2)cc(C(F)(F)F)c1 | 23 µM |
| FC(F)(F)c1cc(CO[C@H]2CCCN(Cc3n[nH]c(S)n3)[C@H]2c2ccccc2)cc(C(F)(F)F)c1 | 10 µM |
| FC(F)(F)c1cc(CO[C@H]2CCCN(Cc3nn[nH]n3)[C@H]2c2ccccc2)cc(C(F)(F)F)c1 | > 5 µM |
